# EXPERIMENTAL_SYSTEM: human angiotensin 2 type 1 receptor (human) (UniProt P30556)
# Sequence (P30556 whole entry): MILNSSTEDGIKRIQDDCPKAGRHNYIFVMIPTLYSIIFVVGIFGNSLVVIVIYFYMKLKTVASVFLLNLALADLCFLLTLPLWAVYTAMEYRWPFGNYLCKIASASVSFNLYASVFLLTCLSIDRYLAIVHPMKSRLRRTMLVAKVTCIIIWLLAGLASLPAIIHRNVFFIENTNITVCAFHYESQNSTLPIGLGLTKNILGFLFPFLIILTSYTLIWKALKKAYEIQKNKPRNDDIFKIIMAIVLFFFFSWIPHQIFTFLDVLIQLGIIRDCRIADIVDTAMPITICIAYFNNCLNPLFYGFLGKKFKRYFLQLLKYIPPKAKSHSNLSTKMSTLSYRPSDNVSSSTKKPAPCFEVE
# PROCEDURE_TEXT: cell-based or functional assay
Where no end group is shown, it is not given here.
PROPERTY: IP One EC50

Here is how some binders turned out for IP One EC50.
BINDER	IP One EC50
DRVYFHP-NH2 [SEQ ID NO: 63 (Asp-Arg-Val-Tyr-Phe-His-Pro-NH2)]	> 10 µM
RVYHHPA (N-terminal Sar; C-terminal acid) [SEQ ID NO: 22 (Sar-Arg-Val-Tyr-His-His-Pro-Ala-OH)]	> 10 µM
RVYVHPI (N-terminal Sar; C-terminal amide) [SEQ ID NO: 12 (Sar-Arg-Val-Tyr-Val-His-Pro-Ile-NH2)]	0.19 µM
DRVYYHP (N-methyl; C-terminal amide) [SEQ ID NO: 61 (N-Me-Asp-Arg-Val-Tyr-Tyr-His-Pro-NH2)]	> 10 µM
RVYYHP (N-terminal Sar; C-terminal D-Phe) [SEQ ID NO: 28 (Sar-Arg-Val-Tyr-Tyr-His-Pro-D-Phe-OH)]	> 10 µM

Task item: Please look up its IP One EC50: DRVYYHP-NH2 [SEQ ID NO: 57 (Asp-Arg-Val-Tyr-Tyr-His-Pro-NH2)]
Reply: 0.0036 µM
